- Experiment Notes: qHTS Screen of the MIPE 4.0 Collection Against Ewings Sarcoma (RDES) (AID 1259252); further: nearly all actives have a fitted effect of over 35% in size
- Study Conditions: RD-ES Ewing sarcoma viability, CellTiter-Glo, 48 h; series mostly up to 45.8 µM
Records with an inconclusive call do not appear. Calls of active or inactive are those of the source. The call rests on the fitted dose curve; in most records, active means well fitted inhibition curve with a large enough effect; inconclusive means small, poorly fitted or top-dose-only effect; inactive means no such curve, though single readings can be large or run the other way.
Could you please pick one outcome from this set? true (1) (active), false (0) (inactive)

Molecule	Group Label
COc1ccc2c(c1OC)CN1CCc3cc4c(cc3C1C2)OCO4 (configuration not stated)	true (1)
COC[C@@H](NC(C)=O)C(=O)NCc1ccccc1	false (0)
CNCC(O)c1ccc(O)cc1 (configuration not stated)	false (0)
C=C(C)[C@H]1Cc2c(ccc3c2O[C@@H]2COc4cc(OC)c(OC)cc4[C@@H]2C3=O)O1	true (1)
CNC(=O)c1ccc(N2C(=S)N(c3ccc(C#N)c(C(F)(F)F)c3)C(=O)C23CCC3)cc1F	true (1)

input: For O=c1[nH]c2ccccc2n1CCCN1CCC(n2c(=O)[nH]c3cc(Cl)ccc32)CC1 , which call appears in the assay record?
output: false (0)

input: One more molecule: C[C@@H]1[C@@H](C(=O)C[C@H]2O[C@@H]3O[C@]4(C)CC[C@@H]5[C@H](C)CC[C@@H]([C@H]2C)[C@@]35OO4)O[C@@H]2O[C@]3(C)CC[C@H]4[C@H](C)CC[C@@H]1[C@@]24OO3
output: true (1)

input: Next: C#CCN(C)[C@H](C)Cc1ccccc1
output: false (0)

input: Next entry: CN(C)CCc1ccc(O)cc1
output: false (0)

====

- Experiment Notes: qHTS of pediatric cancer cell lines to identify multiple opportunities for drug repurposing: Primary screen for BT-12 cells (AID 1347101); further: nearly all actives have a fitted effect of over 25% in size
- Study Conditions: BT-12 viability, CellTiter-Glo luminescence, 48 h; series mostly up to 57.3 µM
Results filed as inconclusive are left out. The source made the active and inactive calls. The call rests on the fitted dose curve; in most records, active means well fitted cell-killing curve with a large enough effect; inconclusive means small, poorly fitted or top-dose-only effect; inactive means flat fitted curve, though single readings scatter.
Outcomes you can answer with include only these: 1 (active), -1 (inactive)

Reference set (3 entries):
Molecule	Group Label
Cc1ccc(-c2nc3ccc(C)cn3c2CC(=O)N(C)C)cc1	-1
O=P1(NCCCl)OCCCN1CCCl (configuration not stated)	-1
O=c1[nH]c2ccccc2n1C1CCN(CCCC(c2ccc(F)cc2)c2ccc(F)cc2)CC1	1

input: Dear all, I need the recorded test outcome for CCCC1CCCCN1 (configuration not stated) , thank you.
output: -1

input: Try the molecule Cn1c(CCCC(=O)O)nc2cc(N(CCCl)CCCl)ccc21
output: -1

input: Input CC(=O)[C@H]1CC[C@H]2[C@@H]3CC[C@H]4C[C@](C)(O)CC[C@]4(C)[C@H]3CC[C@]12C
output: -1

input: Another molecule: Oc1ccccc1-c1ccccc1
output: -1

====

- Experiment Notes: qHTS drug screen for cell cycle checkpoint inhibitors in PARPi-resistant BRCA-mutant ovarian cancer cell lines. (AID 1963452)
- Study Conditions: PEO1/OlaR viability, CellTiter-Glo luminescence, 96 h; active compounds read low
Give Z-AUC for every item shown.
One number for each entry.

Some compounds with recorded Z-AUC:
Compound	Result Value
Cc1cc(SCc2sc(-c3ccc(C(F)(F)F)c(F)c3)nc2C)ccc1OCC(=O)O	-0.925
Cc1sc2c(c1C)C(c1ccc(Cl)cc1)=N[C@@H](CC(=O)OC(C)(C)C)c1nnc(C)n1-2	-0.873
CC(C)CC(N(C)C)C1(c2ccc(Cl)cc2)CCC1 (stereo unspecified)	0.505

Go through the list and state Z-AUC for each entry.
1. NCC1(CC(=O)O)CCCCC1
2. C#CCN(C)[C@H](C)Cc1ccccc1
3. COc1ccc(C(=O)c2c(C)n(CCN3CCOCC3)c3ccccc23)cc1
4. CNC(=O)c1ccc(N2C(=S)N(c3ccc(C#N)c(C(F)(F)F)c3)C(=O)C23CCC3)cc1F
5. CNCC(O)c1ccc(O)cc1 (stereo unspecified)
6. C=C(C)[C@H]1Cc2c(ccc3c2O[C@@H]2COc4cc(OC)c(OC)cc4[C@@H]2C3=O)O1
7. O=C(O)C(=O)c1cn(Cc2ccccc2)c2ccc(-c3ccc(OC(F)(F)F)cc3)cc12

output:
0.463
0.853
0.0561
1.87
-0.876
-1.61
-0.0319

input: Which Z-AUC value is on record for N[C@@H]1C[C@H]1c1ccccc1 ?
output: 0.628

====

- Experiment Notes: Primary qHTS for inhibitors of MERS-S pseudo-typed particle cell entry (AID 1479149); further: nearly all actives have a fitted effect of over 60% in size; further: potency means the concentration at half of the fitted maximal effect
- Study Conditions: MERS-S pseudotyped particle entry, luciferase; series mostly up to 57.1 µM
Inconclusive results are not listed. Activity calls are given as the source filed them. The call rests on the fitted dose curve.

Compound	Potency
CCC(C)n1ncn(-c2ccc(N3CCN(c4ccc(OC[C@H]5CO[C@](Cn6cncn6)(c6ccc(Cl)cc6Cl)O5)cc4)CC3)cc2)c1=O (stereo partly drawn)	2.51 µM (active)
CCC(=O)O[C@H]1[C@H](O[C@@H]2[C@@H](C)[C@H](O[C@H]3C[C@@](C)(OC)[C@@H](O)[C@H](C)O3)[C@@H](C)C(=O)O[C@H](CC)[C@@](C)(O)[C@H](O)[C@@H](C)C(=O)[C@H](C)C[C@@]2(C)O)O[C@H](C)C[C@@H]1N(C)C	inactive
NC(=O)NO	inactive

====

- Study Conditions: Ebola virus entry assay, green fluorescence channel
Entries with a potency or affinity are not part of this list.
Provide the recorded efficacy for the entries that follow.
Answers are plain numbers, in %.

// below: answered compounds
Compound	Unit Of Measure	efficacy
NS(=O)(=O)Cc1noc2ccccc12	%	-13.2
CCOC(=O)[C@H](CCc1ccccc1)N[C@@H](C)C(=O)N1Cc2ccccc2C[C@H]1C(=O)O	%	30.9
Fc1ccc([C@@H]2CCNC[C@H]2COc2ccc3c(c2)OCO3)cc1	%	101
CCCc1cc(=O)[nH]c(=S)[nH]1	%	10.6
Oc1ccc(Cl)cc1Cc1ccccc1	%	-105

# batch: return efficacy for each of the 7 compounds below
1. CC(C)C[C@H](NC(=O)[C@H](CCc1ccccc1)NC(=O)CN1CCOCC1)C(=O)N[C@@H](Cc1ccccc1)C(=O)N[C@@H](CC(C)C)C(=O)[C@@]1(C)CO1
2. NNCCc1ccccc1
3. CN(C)CCCN1c2ccccc2CCc2ccc(Cl)cc21
4. CC(C)(C)NC(=O)[C@@H]1CN(Cc2cccnc2)CCN1C[C@@H](O)C[C@@H](Cc1ccccc1)C(=O)N[C@H]1c2ccccc2C[C@H]1O
5. CC(C)Nc1cccnc1N1CCN(C(=O)c2cc3cc(NS(C)(=O)=O)ccc3[nH]2)CC1
6. Cc1ccc(-c2nc3ccc(C)cn3c2CC(=O)N(C)C)cc1
7. c1cnc2cc3c(cc2n1)C1CNCC3C1

output:
1. -41
2. -18.8
3. -191
4. -17.5
5. -26
6. -21.9
7. -29.9

// input: 8 compounds below; output: efficacy for each
1. CC[C@@H]([C@H](C)O)n1ncn(-c2ccc(N3CCN(c4ccc(OC[C@@H]5CO[C@@](Cn6cncn6)(c6ccc(F)cc6F)C5)cc4)CC3)cc2)c1=O
2. Cc1ccccc1C(OCCN(C)C)c1ccccc1 (configuration not stated)
3. CN(N=O)C(=O)N[C@@H]1[C@@H](O)[C@H](O)[C@@H](CO)O[C@@H]1O
4. CC(C)C1CCC(C(=O)N[C@H](Cc2ccccc2)C(=O)O)CC1 (some centres not stated)
5. C[n+]1ccccc1/C=N/O
6. C=CC(=O)Nc1cc2c(Nc3ccc(F)c(Cl)c3)ncnc2cc1OCCCN1CCOCC1
7. CCN(CC)CCOC(=O)C(O)(c1ccccc1)c1ccccc1
8. CCCCNc1ccc(C(=O)OCCOCCOCCOCCOCCOCCOCCOCCOCCOC)cc1

output:
27.6
62.3
-17.3
-31.7
-22
99.2
-15.5
14

For each of the compounds below, state efficacy.
1. COc1cc2nc(N3CCN(C(=O)c4ccco4)CC3)nc(N)c2cc1OC
2. CCN(CC)CCNC(=O)c1c(C)[nH]c(/C=C2\C(=O)Nc3ccc(F)cc32)c1C
3. CCCCCCCCCCCCCCCC[N+](C)(C)CC
4. CO[C@]12CC[C@@]3(C[C@@H]1[C@](C)(O)C(C)(C)C)[C@@H]1Cc4ccc(O)c5c4[C@@]3(CCN1CC1CC1)[C@H]2O5

output:
75.4
-131
-76.8
-151

Quick batch: efficacy for everything below.
1. COC(=O)[C@H]1[C@H]2C[C@@H]3c4[nH]c5cc(OC)ccc5c4CCN3C[C@H]2C[C@@H](OC(=O)c2cc(OC)c(OC)c(OC)c2)[C@@H]1OC
2. COc1cc(NC(C)CCCN)c2ncccc2c1 (configuration not stated)
3. NCC1(CC(=O)O)CCCCC1

output:
1. 32.6
2. -153
3. -9.69

Each compound below has a recorded value; state its efficacy.
1. O=C1CCc2ccc(OCCCCN3CCN(c4cccc(Cl)c4Cl)CC3)cc2N1
2. COc1ccc(Cc2nccc3cc(OC)c(OC)cc23)cc1OC
3. CC[N+]1(C)CCCC(OC(=O)C(O)(c2ccccc2)c2ccccc2)C1 (configuration not stated)
4. NC(=O)N1c2ccccc2CC(=O)c2ccccc21
5. CCN(CC)CCNC(=O)c1cc(Cl)c(N)cc1OC

output:
1. -27
2. 13
3. 26
4. -11.2
5. -12.5

// for each compound below, give its efficacy
1. O=C(c1ccccc1)c1ccc2n1CCC2C(=O)O (configuration not stated)
2. NC12CC3CC(CC(C3)C1)C2
3. CC1(C)S[C@@H]2[C@H](NC(=O)Cc3ccccc3)C(=O)N2[C@H]1C(=O)O (tested in a mixture with another compound)
4. CN(C)CCC=C1c2ccccc2CCc2ccccc21
5. CN(C)[C@@H]1C(=O)C(C(N)=O)=C(O)[C@@]2(O)C(=O)C3=C(O)c4c(O)cccc4[C@@](C)(O)[C@H]3C[C@@H]12
6. C[C@H]1[C@H](NC(=O)/C(=N/OC(C)(C)C(=O)O)c2csc(N)n2)C(=O)N1S(=O)(=O)O (stereo in doubt)

output:
22
15
-23.1
121
106
16.2

Consider the following items and state reported efficacy for each.
1. CC(=O)N[C@@H](CS)C(=O)O
2. CCCCOCCOCCOCc1cc2c(cc1CCC)OCO2
3. CCN(CCO)CCCC(C)Nc1ccnc2cc(Cl)ccc12 (configuration not stated)
4. Oc1cccc2cccnc12

output:
-17.9
-21
21.3
-17.8
